molecular target: UniProt:P43220; test: GLP-1R activation: cAMP increase in CHO cells stably expressing GLP-1R; format: cell-based; conditions: cAMP increase, CHO cells stably expressing GLP-1R, 10 point dose response, 30 minutes incubation; read-out: EC50
ENDPOINT NAME: pEC50
Quick note: pEC50 means taking -log10 of the concentration in moles per liter.

Q. Sample N#Cc1ccc(COc2ccc(F)c(-c3cc(F)c(Cc4nc5ccc(C(=O)O)cc5n4CCOC4CC4)cc3F)n2)c(F)c1 — what was its pEC50?
A. 8.65

Further cases:
Q. Sample N#Cc1cc(F)c(COc2ccnc(-c3cc(F)c(Cc4nc5ccc(C(=O)O)cc5n4C[C@@H]4CCO4)cc3F)n2)cc1F — what was its pEC50?
A. 9.38

Q. Sample COCCn1c(Cc2ccc(-c3cccc(OCc4cc(C(C)C)ccc4OC)n3)cc2F)nc2ccc(C(=O)O)cc21 — what was its pEC50?
A. 5.76

Q. Sample COCCn1c(Cc2cc(F)c(-c3cccc(OCc4cc(F)c(Cl)cc4F)n3)cc2F)nc2ccc(C(=O)O)cc21 — what was its pEC50?
A. 8.71

Q. Sample N#Cc1ccc(COc2cccc(-c3ccc(Cc4nc5ccc(C(=O)O)cc5n4Cc4cnco4)c(F)c3)n2)c(F)c1 — what was its pEC50?
A. 8.68

Q. Sample COc1cc(C#N)ccc1COc1nccc(-c2cc(F)c(Cc3nc4ccc(C(=O)O)nc4n3CC3(CF)CC3)cc2F)n1 — what was its pEC50?
A. 9.25

Q. Sample COCCn1c(Cc2ccc(-c3nsc(OCc4ccc(C#N)cc4F)n3)cc2F)nc2ccc(C(=O)O)cc21 — what was its pEC50?
A. 6.79

====

assay: Microsomal stability, human liver microsomes (predicted hepatic clearance); settings: predicted from in vitro microsomal stability data
ENDPOINT NAME: Predicted Hepatic Clearance (Pred. Cl.) (mL/min/kg)
Give a bare numeral; the unit mL/min/kg is implied.

Solved cases (4 shown):
Q. Sample COC(CNC(C)=O)Cn1c(Cc2ccc(-c3cccc(OCc4ccc(C#N)cc4F)n3)cc2F)nc2ccc(C(=O)O)cc21 (single isomer, unassigned) [Example 341] — what was its Predicted Hepatic Clearance (Pred. Cl.)?
A. 5.67

Q. Sample CC1(C)COC1Cn1c(Cc2ccc(-c3cccc(OCc4ccc(C#N)cc4F)n3)cc2F)nc2ccc(C(=O)O)cc21 (stereo not drawn) [Example 264] — what was its Predicted Hepatic Clearance (Pred. Cl.)?
A. 4

Q. Sample O=C(O)c1ccc2nc(Cc3ccc(-c4ccnc(OCc5ccc(C(F)F)cc5F)n4)c(F)c3)n(C[C@@H]3CCO3)c2c1 [Example 790] — what was its Predicted Hepatic Clearance (Pred. Cl.)?
A. 3

Q. Sample COCCn1c(Cc2ccc(-c3cccc(OCc4ccc(C#N)cc4F)n3)cc2F)nc2ccc(C(=O)O)c(F)c21 [Example 364] — what was its Predicted Hepatic Clearance (Pred. Cl.)?
A. 3.83

Further cases:
Q. Sample CCn1cncc1Cn1c(Cc2ccc(-c3cccc(OCc4ccc(C#N)cc4F)n3)c(F)c2)nc2ccc(C(=O)O)cc21 [Example 520] — what was its Predicted Hepatic Clearance (Pred. Cl.)?
A. 6.25

====

Here the recorded Predicted Hepatic Clearance (Pred. Cl.) is given for each entry.
assay: Microsomal stability, human liver microsomes (predicted hepatic clearance); conditions: predicted from in vitro microsomal stability data
Give a bare numeral; the unit L/h/kg is implied.

Solved cases (4 shown):
Q. Sample COCCn1c(Cc2cc(F)c(-c3cccc(OCc4ccc(-n5cccn5)nc4)n3)cc2F)nc2ccc(C(=O)O)cc21 — what was its Predicted Hepatic Clearance (Pred. Cl.)?
A. 0.26

Q. Sample N#CCC1(Cn2c(Cc3cc(F)c(-c4cccc(OCc5ccc(C#N)cc5F)n4)cc3F)nc3ccc(C(=O)O)nc32)CC1 — what was its Predicted Hepatic Clearance (Pred. Cl.)?
A. 0.42

Q. Sample N#Cc1ccc(COc2cccc(-c3ccc(Cc4nc5ccc(C(=O)O)cc5n4CC4CCS4(=O)=O)c(F)c3)n2)c(F)c1 (single isomer, unassigned) [Example 70] — what was its Predicted Hepatic Clearance (Pred. Cl.)?
A. 0.13

Q. Sample O=C(O)c1cc(F)c2nc(Cc3ccc(-c4cccc(OCc5ccc(C(F)F)cc5F)n4)cc3F)n(CC34CC(CO3)C4)c2c1 — what was its Predicted Hepatic Clearance (Pred. Cl.)?
A. 0.35

Please find the next compound below.
Q. Sample N#Cc1ccc(COc2cccc(-c3cc(F)c(Cc4nc5ccc(C(=O)O)cc5n4[C@H]4CC[C@@H]4O)cc3F)n2)c(F)c1 — what was its Predicted Hepatic Clearance (Pred. Cl.)?
A. 0.80

====

biological target: GLP-1R (Homo sapiens, UniProt P43220); assay: GLP-1R activation: cAMP increase in CHO cells stably expressing GLP-1R; format: cell-based; settings: cAMP increase, CHO cells stably expressing GLP-1R, 10 point dose response, 30 minutes incubation; read-out: EC50
Sequence (P43220 24-463): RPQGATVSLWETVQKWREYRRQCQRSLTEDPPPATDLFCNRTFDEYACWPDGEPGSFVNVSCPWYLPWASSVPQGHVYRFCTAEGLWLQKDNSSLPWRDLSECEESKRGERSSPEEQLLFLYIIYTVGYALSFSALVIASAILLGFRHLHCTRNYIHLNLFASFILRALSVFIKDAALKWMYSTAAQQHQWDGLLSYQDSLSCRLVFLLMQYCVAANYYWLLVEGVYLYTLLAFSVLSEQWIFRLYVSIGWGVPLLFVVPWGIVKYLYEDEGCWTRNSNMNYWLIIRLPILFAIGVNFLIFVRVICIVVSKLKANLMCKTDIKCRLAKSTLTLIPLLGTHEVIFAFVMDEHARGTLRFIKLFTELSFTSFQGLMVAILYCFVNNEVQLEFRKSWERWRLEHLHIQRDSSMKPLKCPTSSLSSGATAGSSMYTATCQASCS
Here the recorded EC50 is given for each entry.
Give a bare numeral; the unit nM is implied.

Solved cases (5 shown):
Q. Sample N#Cc1ccc(COc2cccc(-c3ccc(Cc4nc5c(F)cc(C(=O)O)cc5n4CC4(C(F)F)CC4)c(F)c3)n2)c(F)c1 — what was its EC50?
A. 1.71

Q. Sample O=C(O)c1cc(F)c2nc(Cc3cc(F)c(-c4cccc(OCc5ccc(C(F)F)cc5F)n4)cc3F)n(C[C@@H]3CCO3)c2c1 — what was its EC50?
A. 0.03

Q. Sample N#Cc1ccc(COc2cccc(-c3ccc(Cc4nc5ccc(C(=O)O)cc5n4C[C@@H]4CCOC4)c(F)c3)n2)c(F)c1 — what was its EC50?
A. 7.77

Q. Sample N#Cc1ccc(COc2cccc(-c3cc(F)c(Cc4nc5ccc(C(=O)O)cc5n4CC4COC4)cc3F)n2)c(F)c1 — what was its EC50?
A. 7.96

Q. Sample N#Cc1ccc(COc2ccc(F)c(-c3cc(F)c(Cc4nc5c(F)cc(C(=O)O)cc5n4C[C@@H]4CCO4)cc3F)n2)cn1 — what was its EC50?
A. 0.24

Please find the next molecule below.
Q. Sample N#Cc1ccc(COc2cccc(-c3ccc(Cc4nc5c(F)cc(C(=O)O)cc5n4CC4(CF)CC4)c(F)c3)n2)c(F)c1 — what was its EC50?
A. 0.74

====

target: GLP-1R (Homo sapiens); experiment: GLP-1R activation: cAMP increase in CHO cells stably expressing GLP-1R; format: cell-based; details: cAMP increase, CHO cells stably expressing GLP-1R, 10 point dose response, 30 minutes incubation; read-out: EC50
EC50 under 60 nM gets y, anything at or over 60 nM gets n.

Here's what some known entries look like.
Q. Below 60 nM on EC50? Entry CC(C)(Cn1c(Cc2ccc(-c3cccc(OCc4ccc(C#N)cc4F)n3)cc2F)nc2ccc(C(=O)O)cc21)C(F)F
A. y

Q. Below 60 nM on EC50? Entry COCCn1c(Cc2ccc(-c3cccc(OCc4c(F)cc(Cl)cc4OC)n3)cc2F)nc2ccc(C(=O)O)cc21
A. y

Q. Below 60 nM on EC50? Entry CC1(Cn2c(Cc3cc(F)c(-c4cccc(OCc5ccc(C#N)cc5F)n4)cc3F)nc3ccc(C(=O)O)cc32)COC1
A. y

Q. Below 60 nM on EC50? Entry COCCn1c(Cc2ccc(-c3cc(OC)cc(OCc4ccc(C#N)cc4F)c3)cc2F)nc2ccc(C(=O)O)cc21
A. n

Q. Below 60 nM on EC50? Entry N#Cc1ccc(COc2cccc(-c3ccc(Cc4nc5ccc(C(=O)O)cc5n4C4COC4)c(F)c3)n2)c(F)c1
A. n

Q. Below 60 nM on EC50? Entry N#Cc1ccc(COc2cccc(-c3cc(F)c(Cc4nc5ccc(C(=O)O)cc5n4[C@H]4CCC(F)(F)C4)cc3F)n2)c(F)c1
A. n

Could you now look at the following molecule, please?
Q. Below 60 nM on EC50? Entry N#Cc1ccc(COc2cccc(-c3cc(F)c(Cc4nc5c(F)cc(C(=O)O)cc5n4CCOC4CC4)cc3F)n2)c(F)c1
A. y

====

Here the recorded pEC50 is given for each entry.
target: UniProt:P43220; assay: GLP-1R activation: cAMP increase in CHO cells stably expressing GLP-1R; type: cell-based; conditions: cAMP increase, CHO cells stably expressing GLP-1R, 10 point dose response, 30 minutes incubation; read-out: EC50
Quick note: pEC50 means taking -log10 of the concentration in moles per liter.

Solved cases (3 shown):
Q. Sample COC1(Cn2c(Cc3cc(F)c(-c4cccc(OCc5ccc(C#N)cc5F)n4)cc3F)nc3ccc(C(=O)O)cc32)CCOC1 (centres unmarked) — what was its pEC50?
A. 8.66

Q. Sample COCCn1c(Cc2ccc(-c3cccc(OCc4cccc5c4OCCO5)n3)cc2F)nc2ccc(C(=O)O)cc21 — what was its pEC50?
A. 7.32

Q. Sample COCCn1c(Cc2ccc(-c3cccc(OCc4cccc(-c5ccccc5)c4)n3)cc2F)nc2ccc(C(=O)O)cc21 — what was its pEC50?
A. 7.55

Further cases:
Q. Sample N#Cc1ccc(COc2nccc(-c3ccc(Cc4nc5c(F)cc(C(=O)O)cc5n4CC4(CF)CC4)c(F)c3)n2)c(F)c1 — what was its pEC50?
A. 9.03

Q. Sample COCCn1c(Cc2cc(F)c(-c3cccc(OCc4ccc(C)cc4F)n3)cc2F)nc2ccc(C(=O)O)cc21 — what was its pEC50?
A. 9.48

Q. Sample CO[C@H](C)Cn1c(Cc2cc(F)c(-c3cccc(OCc4ccc(C#N)cc4F)n3)cc2F)nc2ccc(C(=O)O)cc21 — what was its pEC50?
A. 8.88

Q. Sample COCCn1c(Cc2ccc(-c3cccc(OCc4ccc(F)cc4OC)n3)cc2F)nc2ccc(C(=O)O)cc21 — what was its pEC50?
A. 8.42

Q. Sample N#Cc1ccc(COc2nccc(-c3cc(F)c(Cc4nc5ccc(C(=O)O)cc5n4CC4(CF)CC4)cc3F)n2)c(F)c1 — what was its pEC50?
A. 9.14

Q. Sample COCCn1c(Cc2cc(F)c(-c3cccnc3OCc3ccc(C#N)cc3F)cc2F)nc2ccc(C(=O)O)cc21 — what was its pEC50?
A. 6.90

Q. Sample O=C(O)c1ccc2nc(Cc3cc(F)c(-c4nccc(OCc5ccc(C(F)(F)F)cc5F)n4)cc3F)n(C[C@@H]3CCO3)c2c1 — what was its pEC50?
A. 9.82

Q. Sample COCCn1c(Cc2ccc(-c3cccc(OCc4cccnc4[N+](=O)[O-])n3)cc2F)nc2ccc(C(=O)O)cc21 — what was its pEC50?
A. 6.09
